Target: Calcitonin gene-related peptide type 1 receptor (Homo sapiens, UniProt O60894+Q16602)
Sequence (Q16602 whole entry, one chain of several): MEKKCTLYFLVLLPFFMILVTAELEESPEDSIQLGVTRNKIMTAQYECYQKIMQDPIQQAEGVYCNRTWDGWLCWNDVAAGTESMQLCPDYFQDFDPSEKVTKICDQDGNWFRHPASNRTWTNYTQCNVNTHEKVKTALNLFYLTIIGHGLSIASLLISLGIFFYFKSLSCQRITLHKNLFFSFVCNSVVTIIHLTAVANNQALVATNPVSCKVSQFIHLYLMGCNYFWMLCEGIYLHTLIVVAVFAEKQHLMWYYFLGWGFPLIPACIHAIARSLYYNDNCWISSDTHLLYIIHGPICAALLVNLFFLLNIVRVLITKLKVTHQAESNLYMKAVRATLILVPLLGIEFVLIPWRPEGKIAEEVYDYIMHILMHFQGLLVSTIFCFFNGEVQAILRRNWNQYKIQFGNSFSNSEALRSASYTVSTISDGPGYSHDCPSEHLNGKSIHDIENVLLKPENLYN
Test: Antagonist activity at human recombinant CGRP receptor expressed in HEK293 cells assessed as inhibition of CGRP-stimulated increase of intracellular cAMP level in absence of human serum albumin
Format: functional, cell-based
Measured Endpoint: Ki (nM)

Enquiry: // returns reported Ki for input COc1cc(OC)cc(-c2nnc(CC(=O)N3CCC(n4c(=O)[nH]c5ncccc54)CC3)o2)c1
Return: 50.1

P: CN1CCC(c2cc(Cl)cc(-c3nnc(CC(=O)N4CCC(n5c(=O)[nH]c6ncccc65)CC4)o3)c2)CC1
Q: O=C(Cc1nnc(-c2cccc(Cl)c2)o1)N1CCC(n2c(=O)[nH]c3ncccc32)CC1
R: Cc1cc(C)cc(-c2nnc(CC(=O)N3CCC(n4c(=O)[nH]c5ncccc54)CC3)o2)c1
Enquiry: Endpoint returns the given compounds ordered by ascending Ki. // respond by listing labels in the order requested
Return: P, R, Q
(P: 3.98 nM, R: 25.1 nM, Q: 316 nM)
